Result Type: IC50
Write your answer as a measured quantity: the number, then the unit.

# input Find the measured IC50 of `CC(C)C(=O)N1CCN([C@H]2C[C@@H](C(=O)Nc3cc4cc(-c5cnc(CO[C@H]6CCC[C@@H]6O)nc5)ccn4n3)C2)[C@@H](C)C1` with UniProt Q9NWZ3 as test system.
# Sequence (Q9NWZ3 whole entry): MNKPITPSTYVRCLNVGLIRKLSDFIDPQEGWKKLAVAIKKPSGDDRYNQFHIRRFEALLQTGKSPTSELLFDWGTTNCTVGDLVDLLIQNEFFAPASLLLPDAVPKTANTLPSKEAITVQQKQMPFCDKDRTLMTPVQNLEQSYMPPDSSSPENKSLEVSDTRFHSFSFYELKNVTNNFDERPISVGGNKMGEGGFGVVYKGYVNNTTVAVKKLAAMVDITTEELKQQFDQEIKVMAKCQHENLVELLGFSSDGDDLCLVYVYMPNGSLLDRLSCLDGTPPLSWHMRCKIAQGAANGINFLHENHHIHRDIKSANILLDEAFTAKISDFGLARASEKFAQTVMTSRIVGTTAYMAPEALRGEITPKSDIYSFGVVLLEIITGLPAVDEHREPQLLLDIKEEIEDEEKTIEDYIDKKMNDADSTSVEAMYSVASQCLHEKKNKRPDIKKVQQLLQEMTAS
# output 1.33 nM

# input Give IC50 for `O=C(Nc1nc2ccc(-c3cnc(COC[C@@H]4CCCO4)nc3)cc2s1)C1CC1` tested on UniProt Q9NWZ3.
# output 7.81 nM

# input Lab note: UniProt Q9NWZ3 assay, enter IC50 for CC1(C)CN(C2CC(C(=O)Nc3nc4ccc(-c5cnc(CO[C@H]6CCC[C@@H]6O)nc5)cc4s3)C2)CCO1 (some centres unmarked) here
# output 2.92 nM

# input Param request: IC50 | system UniProt Q9NWZ3 | item `O=C(Nc1cc2cc(-c3cnc(CO[C@H]4CCC[C@@H]4O)nc3)ccn2n1)C1CC1`
# output 2.89 nM

# input // fetch IC50; item: CO[C@H]1CCN(C2CC(C(=O)Nc3nc4ccc(-c5cnc(CO[C@H]6CCC[C@@H]6O)nc5)cc4s3)C2)C1 (some centres unmarked) ; system: UniProt Q9NWZ3
# output 2.41 nM

# input Give UniProt Q9NWZ3 IC50 for the following compound: O=C(Nc1nc2ccc(-c3cnc(CO[C@H]4CCC[C@@H]4O)nc3)cc2s1)C1CC(NC23CC(C2)C3)C1 (some centres unmarked)
# output 2.43 nM

# input Give IC50 for this entry on UniProt Q9NWZ3: COCCN1CCN(C2CC(C(=O)Nc3nc4ccc(-c5cnc(CO[C@H]6CCC[C@@H]6O)nc5)cc4s3)C2)CC1 (some centres unmarked)
# output 1.98 nM

# input Specify IC50 for `C[C@H]1CN(C(=O)c2cccc(C(F)(F)F)n2)CCN1[C@H]1C[C@@H](C(=O)Nc2nc3ccc(-c4cnc(CO[C@H]5CCC[C@@H]5O)nc4)cc3s2)C1` , system UniProt Q9NWZ3.
# output 1.38 nM

# input Enter recorded IC50 with UniProt Q9NWZ3 for `O=C(Nc1nc2ccc(-c3cnc(CO[C@H]4CCC[C@@H]4O)nc3)cc2s1)[C@H]1C[C@@H](OCc2ccncc2)C1` here.
# output 2.05 nM

# input Give IC50 only, for `CCOCC(=O)N1CCN([C@H]2C[C@@H](C(=O)Nc3nc4ccc(-c5cnc(CO[C@H]6CCC[C@@H]6O)nc5)cc4s3)C2)[C@@H](C)C1` , using UniProt Q9NWZ3 data.
# output 2.48 nM

# input State recorded IC50 with UniProt Q9NWZ3, entry C[C@H]1COCCN1C1CC(C(=O)Nc2nc3ccc(-c4cnc(CO[C@H]5CCC[C@@H]5O)nc4)cc3s2)C1 (some centres unmarked) , no comment.
# output 1.34 nM

# input Enter measured IC50, system UniProt Q9NWZ3, for the compound shown: `C[C@H]1CN(C(=O)c2ccnnc2)CCN1[C@H]1C[C@@H](C(=O)Nc2nc3ccc(-c4cnc(CO[C@H]5CCC[C@@H]5O)nc4)cc3s2)C1`
# output 1.58 nM

# input Recall the reported IC50 of `C[C@H]1CN(C(=O)c2ccon2)CCN1[C@H]1C[C@@H](C(=O)Nc2cc3cc(-c4cnc(CO[C@H]5CCC[C@@H]5O)nc4)ccn3n2)C1` on UniProt Q9NWZ3 and write it down.
# output 1.86 nM

# input Provide IC50, system UniProt Q9NWZ3, entry `O=C(Nc1nc2ccc(-c3cnc(CO[C@H]4CCC[C@@H]4O)nc3)cc2s1)C1CC2(CCOCC2)C1`
# output 2.07 nM

# input Fill: IC50 (UniProt Q9NWZ3) for this compound `C[C@H]1CN(C(=O)[C@@H]2CCOC2)CCN1[C@H]1C[C@@H](C(=O)Nc2nc3ccc(-c4cnc(CO[C@H]5CCC[C@@H]5O)nc4)cc3s2)C1`
# output 1.3 nM

# input Please report IC50 with UniProt Q9NWZ3 for item O=C(Nc1nc2ccc(-c3cnc(CO[C@H]4CCC[C@@H]4O)nc3)cc2s1)C1CC(N2CCC(F)CC2)C1 (some centres unmarked) .
# output 2.87 nM

# input Report IC50 on UniProt Q9NWZ3 for this entry: `CCO[C@H]1C[C@@H](C(=O)Nc2nc3ccc(-c4cnc(CO[C@H]5CCC[C@@H]5O)nc4)cc3s2)C1`
# output 2.1 nM

# input Using UniProt Q9NWZ3 as the test system, report measured IC50 of `C[C@H]1CN(C(=O)c2ccon2)CCN1[C@H]1C[C@@H](C(=O)Nc2nc3ccc(-c4cnc(CO[C@H]5CCC[C@@H]5O)nc4)cc3s2)C1` .
# output 0.66 nM

# input State IC50 (UniProt Q9NWZ3) of CN(C1CC(C(=O)Nc2nc3ccc(-c4cnc(CO[C@H]5CCC[C@@H]5O)nc4)cc3s2)C1)C1CC(F)(F)C1 (some centres unmarked) .
# output 2.68 nM

# input Provide UniProt Q9NWZ3 IC50 reading for `C[C@H]1CN(C(=O)C2CCC2)CCN1[C@H]1C[C@@H](C(=O)Nc2nc3ccc(-c4cnc(CO[C@H]5CCC[C@@H]5O)nc4)cc3s2)C1` .
# output 2.51 nM

# input Enter IC50 (test system UniProt Q9NWZ3) for `C[C@H]1CN(C(=O)C2CC2)CCN1[C@H]1C[C@@H](C(=O)Nc2cc3cc(-c4cnc(CO[C@H]5CCC[C@@H]5O)nc4)ccn3n2)C1`
# output 1.09 nM

# input Look up and report measured IC50 (UniProt Q9NWZ3) for the following compound: `O=C(Nc1nc2ccc(-c3cnc(CO[C@H]4CCC[C@@H]4O)nc3)cc2s1)C1CC2(CCN(C(=O)c3ccccn3)CC2)C1`
# output 0.849 nM

# input Would you please give the reported IC50 of `CO[C@]1(C)C[C@H](C(=O)Nc2nc3ccc(-c4cnc(CO[C@H]5CCC[C@@H]5O)nc4)cc3s2)C1` with UniProt Q9NWZ3?
# output 2.16 nM

# input Name the value of IC50 reported for `CCCOCc1ncc(-c2ccn3nc(NC(=O)[C@H]4C[C@@H](N5CCN(C(=O)c6ccnc(C(F)(F)F)c6)C[C@@H]5C)C4)cc3c2)cn1` when tested on UniProt Q9NWZ3.
# output 1.36 nM

# input Give UniProt Q9NWZ3 IC50 for the following compound: `Cc1noc(C)c1C(=O)N1CCN([C@H]2C[C@@H](C(=O)Nc3nc4ccc(-c5cnc(CO[C@H]6CCC[C@@H]6O)nc5)cc4s3)C2)[C@@H](C)C1`
# output 1.6 nM

# input Provide IC50, recorded with UniProt Q9NWZ3, of `C[C@H]1CN(C(=O)[C@H]2CCOC2)CCN1[C@H]1C[C@@H](C(=O)Nc2nc3ccc(-c4cnc(CO[C@H]5CCC[C@@H]5O)nc4)cc3s2)C1`
# output 1.41 nM
